- Method summary: Stability in mouse liver microsomes assessed as parent compound remaining at 1 uM incubated for 60 mins in absence of NADPH
- Type: ADME
- Condition details: read-out: Stability
Reported property: remaining at 1 h, 1 µM (%)
Numbers only, in %.

Smiles entry: CC(=O)c1ccc(-c2csc3ncnc(Sc4nnnn4C)c23)cc1
Value unit: %
remaining at 1 h, 1 µM: 91

Consider the record given below.
Could you share which remaining at 1 h, 1 µM value was measured for Cn1nnnc1Sc1ncnc2scc(-c3cccs3)c12 ?
88

----------
- Target of assay: Phosphatidylinositol 5-phosphate 4-kinase type-2 gamma (Homo sapiens)
- Sequence (Q8TBX8 whole entry): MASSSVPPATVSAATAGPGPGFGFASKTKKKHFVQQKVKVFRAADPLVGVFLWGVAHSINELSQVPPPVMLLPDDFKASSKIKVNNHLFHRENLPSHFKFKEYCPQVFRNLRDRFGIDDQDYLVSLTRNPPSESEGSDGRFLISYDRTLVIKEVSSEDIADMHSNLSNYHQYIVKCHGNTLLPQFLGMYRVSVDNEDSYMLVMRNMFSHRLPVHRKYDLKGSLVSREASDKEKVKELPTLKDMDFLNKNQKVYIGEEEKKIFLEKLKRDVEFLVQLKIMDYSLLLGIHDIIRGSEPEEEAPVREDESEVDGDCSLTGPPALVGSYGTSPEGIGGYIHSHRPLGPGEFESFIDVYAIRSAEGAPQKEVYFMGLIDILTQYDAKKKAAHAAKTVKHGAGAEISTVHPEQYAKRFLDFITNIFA
Reported property: pKd
Numbers only, as −log10 of the molar value.

# count of solved cases: 4
Smiles entry: Cn1nnnc1Sc1ncnc2scc(-c3ccc[nH]3)c12
Assay value: 5.25
//
Smiles entry: Cn1nnnc1Sc1ncnc2scc(-c3cccc(Cl)c3)c12
Assay value: 4.95
//
Smiles entry: Cn1nnnc1Sc1ncnc2scc(-c3cccc(Br)c3)c12
Assay value: 5.55
//
Smiles entry: Cn1nnnc1Sc1ncnc2scc(-c3ccc(C#N)cc3)c12
Assay value: 4.90

For every listed record, write down its pKd.
1. Cc1ccc(-c2csc3ncnc(Sc4nnnn4C)c23)cc1
2. Cn1nnnc1Sc1ncnc2scc(-c3ccccc3F)c12
3. Cn1nnnc1Sc1ncnc2scc(-c3ccc4ccccc4c3)c12
4. COc1ccccc1-c1csc2ncnc(Sc3nnnn3C)c12
5. Cn1nnnc1Sc1ncnc2scc(-c3ccccc3[N+](=O)[O-])c12
6. Cn1nnnc1Sc1ncnc2scc(Br)c12
7. Cn1nnnc1Sc1ncnc2scc(-c3ccc([N+](=O)[O-])cc3)c12

1. 4.85
2. 5.20
3. 4.20
4. 4.10
5. 4.95
6. 5.95
7. 5.20

# return pKd for each item in the list
1. Cc1cccc(-c2csc3ncnc(Sc4nnnn4C)c23)c1
2. Cn1nnnc1Sc1ncnc2scc(-c3cccc(C(F)(F)F)c3)c12
3. Cn1nnnc1Sc1ncnc2scc(-c3cccc(C#N)c3)c12
4. COc1ccc(-c2csc3ncnc(Sc4nnnn4C)c23)cc1
5. CC(=O)c1ccccc1-c1csc2ncnc(Sc3nnnn3C)c12
6. Cn1nnnc1Sc1ncnc2scc(-c3ccccc3C#N)c12
7. Cn1nnnc1Sc1ncnc2scc(-c3ccc(Br)cc3)c12

1. 4.95
2. 5.20
3. 5.60
4. 4.95
5. 4.35
6. 5.20
7. 4.40

----------
- Method summary: Stability in mouse liver microsomes assessed as parent compound remaining at 1 uM incubated for 60 mins in presence of NADPH
- Format: ADME
- Condition details: read-out: Stability
Reported property: remaining at 1 h, 1 µM (%)
Give bare numbers, in %.

Smiles entry: Cn1nnnc1Sc1ncnc2scc(-c3cccs3)c12
remaining at 1 h, 1 µM [%]: 0

// switching to the query compound
So what's the measured remaining at 1 h, 1 µM for this one? CC(=O)c1ccc(-c2csc3ncnc(Sc4nnnn4C)c23)cc1
2
